# System: CAMK1D
# Particulars: concentration: 1 μM, replicates: in singlicate; n = 1
Hi there, I'd appreciate the recorded %Inh for every entry that follows.
Numbers only, in %.

Recorded %Inh, per entry:
CS(=O)(=O)c1ccc(-c2nc3n(c2-c2ccncc2)CCC3)cc1 [SKF-105942]    0
Cn1ccc2ncnc(Oc3ccc(Nc4nc5ccccc5[nH]4)cc3)c21    0
CCn1c(-c2ccccn2)nc2cnccc21 [SB-736398]    0
Cc1cc(-c2ccc3c(c2)CC[C@@H](N[C@@H](C)c2ccccc2)C3)cnc1N.Cl [GW412617]    13
COc1cc2nccc(Nc3ccc(NC(=O)c4ccc(C)cc4)c(O)c3)c2cc1OC.Cl [GW440132]    20
CC1=C(C(=O)Nc2cc3cn[nH]c3cc2F)C(c2ccc(C(F)(F)F)cc2)CC(=O)N1 (stereo not drawn) [GSK429286]    7
Nc1ncnc2[nH]c(-c3ccccc3)nc12 [AH5015]    13
O=C(Nc1n[nH]c2nc(-c3nccs3)c(Br)cc12)C1CCCC1 [SB-742609]    1

Please find the next molecule below.
Using the record for O=c1cc(N2CCOCC2)nc2n(Cc3cccc(Cl)c3Cl)ccn12 [GSK2286295] , report its %Inh.
18

====

# Test system: NEK3
# Particulars: concentration: 1 μM, replicates: in singlicate; n = 1
Hi there, I'd appreciate the recorded %Inh for every entry that follows.
A complete answer gives the number and then names the unit.

CCn1c(-c2ccccn2)nc2cnccc21    12%
Cc1cccc(-c2nc(Nc3ccncc3)c3ccccc3n2)n1    30%
Cc1ccc(-c2cc(-c3c[nH]nc3-c3ccccn3)ccn2)cc1    8%

Would you mind listing %Inh for each of the following molecules?
1. Cc1ccc(NC(=O)Nc2cc(C(C)(C)C)nn2-c2ccccc2)cc1
2. O=S(=O)(c1ccc(-c2ccnc3[nH]ccc23)cc1)N1CCCC1
3. O=C(Nc1n[nH]c2nc(-c3nccs3)c(Br)cc12)C1CC1
4. Cc1ccc(NC(=O)Nc2cccc(Cl)c2)cc1-c1ccc(C(=O)Nc2ccncc2)cc1
5. Cc1ccccc1-n1cnc2c(N)ncnc21
6. Cc1cccc(-c2nc(-c3ccc(S(C)(=O)=O)cc3)sc2-c2ccnc(NCCc3ccccc3)c2)c1

["8%", "16%", "8%", "16%", "0%", "30%"]

====

# System: CIT
# Particulars: concentration: 1 μM, replicates: in singlicate; n = 1
Measurement label: %Inh (%)
Give bare numbers, in %.

Recorded %Inh, per entry:
Cc1ccc(NC(=O)Nc2cccc(Cl)c2)cc1-c1ccc(C(=O)Nc2ccncc2)cc1    86
Nc1nc(-c2nccs2)c(-c2ccnc3ccccc23)s1    44

Using the record for "Cc1cccc(-c2nc(-c3ccc(S(C)(=O)=O)cc3)sc2-c2ccnc(NCCc3ccccc3)c2)c1" , report its %Inh.
0

====

# Test system: PKMYT1
# Particulars: concentration: 1 μM, replicates: in singlicate; n = 1
Measurement label: %Inh
A complete answer gives the number and then names the unit.

Recorded %Inh, per entry:
Cn1cncc1-c1ccc2ncnc(Nc3ccc(OCc4ccccc4)cc3)c2c1    8%
COc1cccc(NC(=O)NC2CCN(c3ccnc(Nc4ccc(F)cc4)n3)C2)c1 (stereo not shown)    0%
Nc1ncnc2[nH]c(-c3ccccc3)nc12    0%
O=C(Nc1ccccc1)Nc1cccc(Oc2ccc3nccn3n2)c1    0%
Cl.O=C(Nc1cccc(-c2nn3ncccc3c2-c2ccnc(Nc3cccnc3)n2)c1)c1c(F)cccc1F    20%
COC(=O)c1c(-c2ccccc2)c2cc(C(=O)O)ccc2c(=O)n1Cc1ccccc1    0%
CC(=O)Nc1nc2cnc(Nc3cc(NC(=O)c4cccc(CCC#N)c4)ccc3C)nc2s1    0%
COc1cc2nccc(Nc3ccc(NC(=O)c4ccc(C)cc4)c(O)c3)c2cc1OC.Cl    4%

Would you mind listing %Inh for each of the following compounds?
1. Cc1cccc(-c2cc(Nc3ccncc3)c3ccccc3n2)n1
2. Cc1cccc(-c2nc(C)cc(Nc3ccncc3)n2)n1
3. Cc1ccccc1-n1cnc2c(N)ncnc21
4. Cc1nnc(-c2ccc3occ(-c4ccc(S(C)=O)cc4)c3c2)[nH]1 (stereo not shown)
5. Cn1ccc2ncnc(Oc3ccc(NC(=O)Nc4ccccc4)cc3)c21
6. Nc1nc(-c2nccs2)c(-c2ccnc3ccccc23)s1

["0%", "12%", "0%", "21%", "16%", "0%"]

Would you mind listing %Inh for each of the following compounds?
1. Cc1csc(-c2nc(Nc3ccncc3)c3ccccc3n2)n1
2. CC(C)(C)c1ccc(C(=O)Nc2cn3cc(Cl)ccc3n2)cc1
3. Cl.NC(=O)c1cccc(Nc2nccc(Nc3ccc(Oc4cccc(Cl)c4)c(Cl)c3)n2)c1
4. O=C(Nc1n[nH]c2cc(-c3cccc(F)c3F)ccc12)C1CC1
5. COc1ccccc1CNC(=O)c1cc(C(=O)c2ccccc2C)c[nH]1

1: 16%; 2: 0%; 3: 0%; 4: 40%; 5: 0%

====

# Tested on: CSF1R-autoinhibited
# Particulars: concentration: 1 μM, replicates: in singlicate; n = 1
Hi there, I'd appreciate the recorded %Inh for every entry that follows.
Numbers only, in %.

Cc1cccc(-c2nc(C)cc(Nc3ccncc3)n2)n1    0

Would you mind listing %Inh for each of the following molecules?
1. Cc1c(O)cccc1Nc1ccnc2ccc(C(F)(F)F)cc12.Cl
2. Cl.c1ccc(-c2n[nH]cc2-c2ccnc(-c3ccc(CN4CCOCC4)cc3)c2)nc1
3. Cl.NC(=O)c1cccc(Nc2nccc(Nc3ccc(Oc4cccc(Cl)c4)c(Cl)c3)n2)c1

0
0
22

====

# System: PRKD2;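 further: kd values determined as follow-up on hits from a single-replicate KINOMEscan panel screen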
Measurement label: Kd

Recorded Kd, per entry:
COc1ccc2nc(-c3cccc(C)n3)nc(Nc3ccncc3)c2c1    34 nM
Cc1cccc(-c2nc(Nc3ccc4[nH]ncc4c3)c3ccccc3n2)n1    15 nM

Please find the next compound below.
Using the record for "COc1ccc(Nc2nccc(NCCNC(=O)Nc3ccccc3F)n2)cc1" , report its Kd.
> 10000 nM

====

# Test system: ERK2
# Construct: gene MAPK1
# Particulars: concentration: 1 μM, replicates: in singlicate; n = 1
Classify as follows. Reported %Inh greater than or equal to 7%: YES. Reported %Inh below: NO.

Fc1cccc(COc2nnc(-c3ccc4c(c3)CCO4)o2)c1    YES
Cc1cccc(-c2nc(C)cc(Nc3ccncc3)n2)n1 [GSK257997]    NO

Can "Cn1ccc2ncnc(Oc3ccc(NC(=O)Nc4ccccc4)cc3)c21" be said to have %Inh at or above 7%?
NO

Can COc1ccc(Nc2nccc(-c3cccc(NC(=O)c4cc5cc(F)ccc5[nH]4)c3)n2)cc1 [GSK1229782] be said to have %Inh at or above 7%?
YES

====

Hi there, I'd appreciate the recorded %Inh for every entry that follows.
# Tested on: TYRO3
# Particulars: concentration: 1 μM, replicates: in singlicate; n = 1
One number for each entry, in %.

Recorded %Inh, per entry:
Cc1ccccc1-n1cnc2c(N)ncnc21 [SKF-97510]    25
O=C(Nc1ccccc1)Nc1cccc(Oc2ccc3nccn3n2)c1    11
O=C(Nc1n[nH]c2cc(-c3cccc(F)c3F)ccc12)C1CC1 [SB-733894]    0
CC(C)(C)c1ccc(C(=O)Nc2cn3cc(Cl)ccc3n2)cc1    9
CS(=O)(=O)c1ccc(-c2c(-c3ncn[nH]3)sc(N3CCOCC3)c2C#N)cc1    0
COc1cc(Nc2nccc(N3CCC(NC(=O)Nc4cc(C)ccc4C)C3)n2)cc(OC)c1OC (stereo not shown) [GSK1379762]    0
O=C(O)COc1ncnc2cc(-c3ccc4[nH]ncc4c3)sc12    0
COc1ccccc1CNC(=O)c1cc(C(=O)c2ccccc2C)c[nH]1 [GSK364507]    15

Would you mind listing %Inh for each of the following compounds?
1. COc1ccccc1-c1ccc2c(NC(=O)C3CC3)n[nH]c2n1 [SB-711239]
2. Cl.O=C(Nc1cccc(-c2nn3ncccc3c2-c2ccnc(Nc3cccnc3)n2)c1)c1c(F)cccc1F [GSK312879]
3. Cc1cc(-c2ccc3c(c2)CC[C@@H](N[C@@H](C)c2ccccc2)C3)cnc1N.Cl [GW412617]
4. COc1cccc(NC(=O)NC2CCN(c3ccnc(Nc4ccc(F)cc4)n3)C2)c1 (stereo not shown) [GSK1379721]
5. Cl.NC(=O)c1cccc(Nc2nccc(Nc3ccc(Oc4cccc(Cl)c4)c(Cl)c3)n2)c1 [GW659008]

[0, 0, 17, 0, 10]

Would you mind listing %Inh for each of the following compounds?
1. CCn1c(-c2cccnc2O)nc2cnccc21 [SB-736715]
2. CN1C(=O)C(Nc2ccc(Cl)c(C(=O)O)c2)=C(c2ccc(Cl)cc2)C1=O [SB-404290]
3. O=C(Nc1n[nH]c2nc(-c3nccs3)c(Br)cc12)C1CCCC1 [SB-742609]
4. COc1ccc(C2=C(Nc3cccc(C(=O)O)c3)C(=O)NC2=O)cc1 [SB-390765]

[0, 0, 0, 22]

Would you mind listing %Inh for each of the following compounds?
1. O=C(Nc1n[nH]c2nc(-c3nccs3)c(Br)cc12)C1CC1 [SB-742251]
2. O=C1NC(=O)C(N2CCc3ccccc32)=C1c1ccccc1Cl [SB-373598]

[0, 0]

This collection of values is drawn from paper PMC5540273.
